Assignment: determine reported Test H disease control rating for the given compounds.
- Test system: Puccinia recondita f. sp. tritici
- methodDescription: Test H: wheat leaf rust, curative spray on inoculated wheat seedlings, visual disease rating
- protocolConditions: wheat leaf rust, sprayed after inoculation; 100 = 100% disease control, 0 = no disease control relative to controls
Just the number in %, nothing appended.

Inquiry: Bench note: what Test H disease control rating did COc1ccc(Nc2c(-c3c(Cl)cccc3Cl)c(C)nn2C)cc1 [compound 333] show?
Reply text: 9

Inquiry: Bench note: what Test H disease control rating did Cc1nn(C)c(Nc2c(F)cccc2F)c1-c1ccc(Cl)cc1Cl [compound 353] show?
Reply text: 3

Inquiry: Bench note: what Test H disease control rating did Cc1nn(C)c(Nc2c(Cl)cc(F)cc2Cl)c1-c1c(Cl)cccc1Cl [compound 341] show?
Reply text: 0

Inquiry: Bench note: what Test H disease control rating did Cc1nn(C)c(Nc2c(Cl)cc(F)cc2Cl)c1-c1ccc(Cl)cc1Cl [compound 363] show?
Reply text: 0

Inquiry: Bench note: what Test H disease control rating did Cc1nn(C)c(Nc2ncc(Cl)cc2Cl)c1-c1c(F)cccc1F [compound 321] show?
Reply text: 9

Inquiry: Bench note: what Test H disease control rating did COc1ccc(-c2c(C)nn(C)c2Oc2ccc(C#N)cc2F)c(Cl)c1 [compound 310] show?
Reply text: 0

Inquiry: Bench note: what Test H disease control rating did COc1ccc(-c2c(C)nn(C)c2Oc2ccc(C#N)cc2Cl)c(Cl)c1 [compound 311] show?
Reply text: 0

Inquiry: Bench note: what Test H disease control rating did COc1ccc(-c2c(C)nn(C)c2Oc2ccc(C#N)cc2Cl)c(Br)c1 [compound 318] show?
Reply text: 0

Inquiry: Bench note: what Test H disease control rating did COc1cc(Cl)c(Nc2c(-c3ccc(F)cc3Br)c(C)nn2C)c(Cl)c1 [compound 323] show?
Reply text: 0

Inquiry: Bench note: what Test H disease control rating did COc1ccc(Nc2c(-c3ccc(Cl)cc3Cl)c(C)nn2C)cc1 [compound 355] show?
Reply text: 3

Inquiry: Bench note: what Test H disease control rating did COc1ccc(Nc2c(-c3ccc(F)cc3Cl)c(C)nn2C)c(Cl)c1 [compound 322] show?
Reply text: 99

Inquiry: Bench note: what Test H disease control rating did Cc1nn(C)c(Nc2ncc(Cl)cc2Cl)c1-c1ccccc1Cl [compound 320] show?
Reply text: 0

Inquiry: Bench note: what Test H disease control rating did Cc1nn(C)c(Nc2ccc(F)cc2Cl)c1-c1c(Cl)cccc1Cl [compound 334] show?
Reply text: 0

Inquiry: Bench note: what Test H disease control rating did Cc1nn(C)c(Nc2ncc(Cl)cc2Cl)c1-c1ccc(F)cc1F [compound 328] show?
Reply text: 0

Inquiry: Bench note: what Test H disease control rating did Cc1nn(C)c(Oc2ccc(C#N)cc2Cl)c1-c1ccc(Cl)cc1Cl [compound 362] show?
Reply text: 0

Inquiry: Bench note: what Test H disease control rating did Cc1nn(C)c(Oc2c(F)cc(C#N)cc2F)c1-c1ccccc1C(F)(F)F [compound 306] show?
Reply text: 0

Inquiry: Bench note: what Test H disease control rating did Cc1nn(C)c(Oc2c(F)cc(C#N)cc2F)c1-c1ccccc1F [compound 305] show?
Reply text: 0

Inquiry: Bench note: what Test H disease control rating did Cc1nn(C)c(Oc2c(F)cc(C#N)cc2F)c1-c1cc(C(F)(F)F)ccc1Cl [compound 307] show?
Reply text: 0

----------
- System: Botrytis cinerea
- methodDescription: Test B: tomato Botrytis, preventive spray on tomato seedlings, visual disease rating
- protocolConditions: tomato Botrytis; 100 = 100% disease control, 0 = no control relative to controls
measure: Test B rating (% disease control)
Please answer using a numeric value trailed by its unit.

Inquiry: Bench note: what Test B rating (% disease control) did Cc1nn(C)c(Nc2ccc(F)cc2F)c1-c1ccc(F)cc1F [compound 230] show?
Reply text: 99%

Inquiry: Bench note: what Test B rating (% disease control) did COc1cc(F)c(-c2c(C)nn(C)c2Oc2ccc(C)c(OC)c2)c(F)c1 [compound 249] show?
Reply text: 40%

Inquiry: Bench note: what Test B rating (% disease control) did COc1cc(F)c(-c2c(C)nn(C)c2Oc2ccc(Br)c(F)c2)c(F)c1 [compound 153] show?
Reply text: 100%

Inquiry: Bench note: what Test B rating (% disease control) did Cc1nn(C)c(Nc2cc(C#N)ccc2Cl)c1-c1ccc(F)cc1Cl [compound 235] show?
Reply text: 84%

Inquiry: Bench note: what Test B rating (% disease control) did Cc1nn(C)c(Nc2ccc(Cl)cc2Cl)c1-c1c(F)cccc1F [compound 179] show?
Reply text: 100%

Inquiry: Bench note: what Test B rating (% disease control) did COc1cc(F)c(-c2c(C)nn(C)c2Oc2ccc(Br)c(C)c2)c(F)c1 [compound 186] show?
Reply text: 0%

Inquiry: Bench note: what Test B rating (% disease control) did COc1ccc(-c2c(C)nn(C)c2Nc2ncc(Cl)cc2Cl)c(Cl)c1 [compound 267] show?
Reply text: 100%

Inquiry: Bench note: what Test B rating (% disease control) did Cc1nn(C)c(Oc2ccc(F)cc2C#N)c1-c1ccc(F)cc1Cl [compound 149] show?
Reply text: 100%

Inquiry: Bench note: what Test B rating (% disease control) did COc1cccc(Nc2c(-c3ccc(F)cc3F)c(C)nn2C)c1Cl [compound 281] show?
Reply text: 98%

Inquiry: Bench note: what Test B rating (% disease control) did COc1cccc(Oc2c(-c3c(F)cc(OC)cc3F)c(C)nn2C)c1 [compound 221] show?
Reply text: 98%

Inquiry: Bench note: what Test B rating (% disease control) did COc1cc(Oc2c(-c3c(F)cc(F)cc3F)c(C)nn2C)ccc1[N+](=O)[O-] [compound 151] show?
Reply text: 99%

Inquiry: Bench note: what Test B rating (% disease control) did Cc1nn(C)c(Nc2cc(C#N)ccc2Cl)c1-c1ccc(F)cc1F [compound 291] show?
Reply text: 99%

Inquiry: Bench note: what Test B rating (% disease control) did COc1cc(F)c(-c2c(C)nn(C)c2Oc2ccc(Cl)c(C#N)c2)c(F)c1 [compound 218] show?
Reply text: 94%

Inquiry: Bench note: what Test B rating (% disease control) did COc1cc(F)c(-c2c(C)nn(C)c2Oc2ccc(Br)c(C#N)c2)c(F)c1 [compound 258] show?
Reply text: 41%

Inquiry: Bench note: what Test B rating (% disease control) did COc1cc(F)ccc1Nc1c(-c2c(F)cccc2F)c(C)nn1C [compound 199] show?
Reply text: 99%

Inquiry: Bench note: what Test B rating (% disease control) did COc1cccc(Nc2c(-c3c(F)cccc3F)c(C)nn2C)c1 [compound 200] show?
Reply text: 82%

Inquiry: Bench note: what Test B rating (% disease control) did COc1ccc(-c2c(C)nn(C)c2Oc2c(F)cc(C#N)cc2F)c(Cl)c1 [compound 155] show?
Reply text: 100%

Inquiry: Bench note: what Test B rating (% disease control) did Cc1nn(C)c(Oc2ccc(C#N)c(C#N)c2)c1-c1ccc(F)cc1Cl [compound 168] show?
Reply text: 14%

----------
- Test system: Septoria tritici
- methodDescription: Test G: wheat leaf blotch, preventive spray on wheat seedlings, visual disease rating
- protocolConditions: wheat leaf blotch, sprayed the day before inoculation; 100 = 100% disease control, 0 = no disease control relative to controls
measure: Test G disease control rating (%)
Just the number in %, nothing appended.

Inquiry: Lab request: please report Test G disease control rating under test system Septoria tritici for Cc1nn(C)c(Oc2c(F)cc(C#N)cc2F)c1-c1cc(F)ccc1F
Reply text: 100

Inquiry: Lab request: please report Test G disease control rating under test system Septoria tritici for Cc1nn(C)c(Nc2ncc(Cl)cc2Cl)c1-c1c(F)cccc1F
Reply text: 100

Inquiry: Lab request: please report Test G disease control rating under test system Septoria tritici for Cc1nn(C)c(N(c2c(F)cc(F)cc2F)S(C)(=O)=O)c1-c1ccc(F)cc1Cl
Reply text: 16

Inquiry: Lab request: please report Test G disease control rating under test system Septoria tritici for Cc1nn(C)c(Nc2cc([N+](=O)[O-])ccc2F)c1-c1ccc(F)cc1Cl
Reply text: 67

Inquiry: Lab request: please report Test G disease control rating under test system Septoria tritici for Cc1nn(C)c(Nc2c(Cl)cc(F)cc2Br)c1-c1ccc(F)cc1F
Reply text: 100

Inquiry: Lab request: please report Test G disease control rating under test system Septoria tritici for Cc1nn(C)c(Nc2ccc(F)cc2Br)c1-c1c(Cl)cccc1Cl
Reply text: 100

Inquiry: Lab request: please report Test G disease control rating under test system Septoria tritici for Cc1nn(C)c(Oc2c(F)cc(C#N)cc2F)c1-c1ccccc1C(F)(F)F
Reply text: 93

Inquiry: Lab request: please report Test G disease control rating under test system Septoria tritici for Cc1nn(C)c(Nc2ccc(F)cc2F)c1-c1ccccc1Cl
Reply text: 100

Inquiry: Lab request: please report Test G disease control rating under test system Septoria tritici for COc1cc(Cl)c(Nc2c(-c3ccc(F)cc3Br)c(C)nn2C)c(Cl)c1
Reply text: 98

----------
Assignment: determine reported Test B rating (% disease control) for the given molecules.
- Tested on: Botrytis cinerea
- methodDescription: Test B: tomato Botrytis, preventive spray on tomato seedlings, visual disease rating
- protocolConditions: tomato Botrytis; 100 = 100% disease control, 0 = no control relative to controls
Just the number in %, nothing appended.

Inquiry: Bench note: what Test B rating (% disease control) did Cc1nn(C)c(Nc2c(F)ccc(F)c2F)c1-c1ccc(F)cc1Cl [compound 171] show?
Reply text: 100

Inquiry: Bench note: what Test B rating (% disease control) did Cc1nn(C)c(Nc2ccc(F)cc2)c1-c1ccccc1C(F)(F)F [compound 237] show?
Reply text: 99

Inquiry: Bench note: what Test B rating (% disease control) did Cc1nn(C)c(Nc2c(F)cccc2F)c1-c1ccc(F)cc1F [compound 256] show?
Reply text: 99

Inquiry: Bench note: what Test B rating (% disease control) did COc1cc(F)c(Nc2c(-c3ccccc3C(F)(F)F)c(C)nn2C)c(F)c1 [compound 240] show?
Reply text: 100

Inquiry: Bench note: what Test B rating (% disease control) did Cc1nn(C)c(Nc2ccc(F)cc2Cl)c1-c1ccccc1C(F)(F)F [compound 236] show?
Reply text: 97

Inquiry: Bench note: what Test B rating (% disease control) did Cc1nn(C)c(Oc2cc(F)cc(F)c2F)c1-c1c(F)cc(F)cc1F [compound 167] show?
Reply text: 75

Inquiry: Bench note: what Test B rating (% disease control) did COc1cc(F)c(-c2c(C)nn(C)c2Oc2ccc(Cl)cc2)c(F)c1 [compound 206] show?
Reply text: 99

Inquiry: Bench note: what Test B rating (% disease control) did Cc1nn(C)c(Oc2ccc(Cl)c(C#N)c2)c1-c1c(F)cc(F)cc1F [compound 224] show?
Reply text: 99

Inquiry: Bench note: what Test B rating (% disease control) did COc1cc(F)c(-c2c(C)nn(C)c2C(O)c2ccc(F)cc2F)c(F)c1 (stereo not drawn) [compound 208] show?
Reply text: 100

Inquiry: Bench note: what Test B rating (% disease control) did Cc1nn(C)c(Oc2c(F)cc(C#N)cc2F)c1-c1ccc(F)cc1F [compound 170] show?
Reply text: 100

Inquiry: Bench note: what Test B rating (% disease control) did Cc1nn(C)c(Nc2ncc(F)cc2F)c1-c1ccccc1C(F)(F)F [compound 280] show?
Reply text: 99

Inquiry: Bench note: what Test B rating (% disease control) did COc1ccc(F)c(Nc2c(-c3c(F)cccc3F)c(C)nn2C)c1 [compound 216] show?
Reply text: 96

Inquiry: Bench note: what Test B rating (% disease control) did Cc1nn(C)c(Nc2ccc(C#N)cc2F)c1-c1ccc(F)cc1F [compound 246] show?
Reply text: 99

Inquiry: Bench note: what Test B rating (% disease control) did Cc1nn(C)c(Oc2ncc(C(F)(F)F)cc2Cl)c1-c1ccc(F)cc1Br [compound 261] show?
Reply text: 0

Inquiry: Bench note: what Test B rating (% disease control) did Cc1nn(C)c(Nc2ccc(F)cc2F)c1-c1cccc(F)c1F [compound 202] show?
Reply text: 99

Inquiry: Bench note: what Test B rating (% disease control) did Cc1nn(C)c(Nc2c(F)cc(C#N)cc2F)c1-c1c(F)cccc1F [compound 301] show?
Reply text: 99

Inquiry: Bench note: what Test B rating (% disease control) did Cc1nn(C)c(Nc2cncnc2)c1-c1ccc(F)cc1Cl [compound 270] show?
Reply text: 92

Inquiry: Bench note: what Test B rating (% disease control) did COc1ccc(Nc2c(-c3ccc(F)cc3F)c(C)nn2C)c(F)c1 [compound 228] show?
Reply text: 99
